# assaySummary: Kinetic solubility
# Assay type: physicochemical
Square brackets hold non-standard residues; d marks the D form. Peptide text beside a SMILES is read from it. Nphe = O=C(O)CNCc1ccccc1; NPrGly = CCCNCC(=O)O
metricName: solubility kinetic (µM)
One number for each entry, in µM.

Below: 5 compounds and their reported solubility kinetic.
>  <compound>
CCCN1CC(=O)N(Cc2ccccc2)CC(=O)N[C@H](CC(C)C)C(=O)N[C@@H]([C@@H](C)CC)C(=O)N[C@H](CC(C)C)C(=O)N[C@H](Cc2ccccc2)C1=O [3EpDN, 3-EpD1,2N] (cyclo(I[dL][dF][NPrGly][Nphe][dL]))

>  <unitInfo>
µM

>  <solubility kinetic>
18

$$$$
>  <compound>
CCCN1CC(=O)N(Cc2ccccc2)CC(=O)N[C@H](CC(C)C)C(=O)N[C@@H]([C@@H](C)CC)C(=O)N[C@@H](C)C(=O)N[C@H](Cc2ccccc2)C1=O [1EpDN 5Ala, EpD1,2N 5Ala] (cyclo(A[dF][NPrGly][Nphe][dL]I))

>  <unitInfo>
µM

>  <solubility kinetic>
127

$$$$
>  <compound>
CCCN1CC(=O)N(Cc2ccccc2)CC(=O)N[C@H](CC(C)C)C(=O)N[C@@H]([C@@H](C)CC)C(=O)N[C@@H](CC(C)C)C(=O)N[C@H](C)C1=O [1EpDN 6Ala, EpD1,2N 6Ala] (cyclo(IL[dA][NPrGly][Nphe][dL]))

>  <unitInfo>
µM

>  <solubility kinetic>
125

$$$$
>  <compound>
CCCN1CC(=O)N(Cc2ccccc2)CC(=O)N[C@@H](CC(C)C)C(=O)N[C@@H]([C@@H](C)CC)C(=O)N[C@H](CC(C)C)C(=O)N[C@@H](Cc2ccccc2)C1=O [5EpDN, 5-EpD1,2N] (cyclo(F[NPrGly][Nphe]LI[dL]))

>  <unitInfo>
µM

>  <solubility kinetic>
13

$$$$
>  <compound>
CCCN1CC(=O)N(Cc2ccccc2)CC(=O)N[C@@H](CC(C)C)C(=O)N[C@@H]([C@@H](C)CC)C(=O)N[C@@H](CC(C)C)C(=O)N[C@H](Cc2ccccc2)C1=O [2EpDN, 2-EpD1,2N] (cyclo(IL[dF][NPrGly][Nphe]L))

>  <unitInfo>
µM

>  <solubility kinetic>
12

$$$$

# return solubility kinetic for each item in the list
1. CCCN1CC(=O)N(Cc2ccccc2)CC(=O)N[C@H](CC(C)C)C(=O)N[C@@H](C)C(=O)N[C@@H](CC(C)C)C(=O)N[C@H](Cc2ccccc2)C1=O [1EpDN 4Ala, EpD1,2N 4Ala] (cyclo(AL[dF][NPrGly][Nphe][dL]))
2. CCCN1CC(=O)N(Cc2ccccc2)CC(=O)N[C@@H](CC(C)C)C(=O)N[C@H]([C@H](C)CC)C(=O)N[C@H](CC(C)C)C(=O)N[C@@H](Cc2ccccc2)C1=O [9EpDN, 9-EpD1,2N] (cyclo(F[NPrGly][Nphe]L[dI][dL]))
3. CCCN1CC(=O)N(Cc2ccccc2)CC(=O)N[C@@H](CC(C)C)C(=O)N[C@@H]([C@@H](C)CC)C(=O)N[C@H](CC(C)C)C(=O)N[C@H](Cc2ccccc2)C1=O [4EpDN, 4-EpD1,2N] (cyclo(I[dL][dF][NPrGly][Nphe]L))
4. CCCN1CC(=O)N(Cc2ccccc2)CC(=O)N[C@H](CC(C)C)C(=O)N[C@@H]([C@@H](C)CC)C(=O)N[C@H](CC(C)C)C(=O)N[C@@H](Cc2ccccc2)C1=O [6EpDN, 6-EpD1,2N] (cyclo(F[NPrGly][Nphe][dL]I[dL]))
5. CCCN1CC(=O)N(Cc2ccccc2)CC(=O)N[C@H](CC(C)C)C(=O)N[C@@H]([C@@H](C)CC)C(=O)N[C@@H](CC(C)C)C(=O)N[C@@H](Cc2ccccc2)C1=O [8EpDN, 8-EpD1,2N] (cyclo(F[NPrGly][Nphe][dL]IL))

[reply]
1: 75; 2: 10; 3: 13; 4: 1; 5: 1

====

# assaySummary: Kinetic solubility
# Type: physicochemical
# experimentalConditions: DMEM (no antibiotics)
Square brackets hold non-standard residues; d marks the D form. Peptide text beside a SMILES is read from it. Nphe = O=C(O)CNCc1ccccc1; NPrGly = CCCNCC(=O)O; Sar = CNCC(=O)O
metricName: solubility
Please answer using the number first and the unit second.

Below: 2 compounds and their reported solubility.
>  <compound>
CCCN1CC(=O)N(Cc2ccccc2)CC(=O)N[C@@H](CC(C)C)C(=O)N[C@@H]([C@@H](C)CC)C(=O)N[C@H](CC(C)C)C(=O)N[C@H](Cc2ccccc2)C1=O [4EpDN, 4-EpD1,2N] (cyclo(I[dL][dF][NPrGly][Nphe]L))

>  <solubility>
12 µM

$$$$
>  <compound>
CCCN1CC(=O)N(C)CC(=O)N[C@@H](CC(C)C)C(=O)N[C@@H]([C@@H](C)CC)C(=O)N[C@H](CC(C)C)C(=O)N[C@H](Cc2ccccc2)C1=O [4EpDN 2Sar, 4-EpD1,2N 2Sar] (cyclo(I[dL][dF][NPrGly][Sar]L))

>  <solubility>
61 µM

$$$$

Next, consider the following compound.
[ask] Quick one: solubility of CC[C@H](C)[C@@H]1NC(=O)[C@H](CC(C)C)NC(=O)CN(Cc2ccccc2)C(=O)CN(C)C(=O)[C@@H](Cc2ccccc2)NC(=O)[C@@H](CC(C)C)NC1=O [4EpDN 1Sar, 4-EpD1,2N 1Sar] (cyclo(I[dL][dF][Sar][Nphe]L)) ?
[reply] 6 µM

====

So I've got a bunch of compounds here, and I need their IC50 values.
# System: P. aeruginosa PA103 T3SS (ExoU secretion)
# Type: cell-based, Pseudomonas aeruginosa
# experimentalConditions: read-out: IC50 (Table S1)
Square brackets hold non-standard residues; d marks the D form. Peptide text beside a SMILES is read from it. Nphe = O=C(O)CNCc1ccccc1; NPrGly = CCCNCC(=O)O
One number for each entry, in µM.

>  <compound>
CCCN1CC(=O)N(Cc2ccccc2)CC(=O)N[C@H](CC(C)C)C(=O)N[C@@H]([C@@H](C)CC)C(=O)N[C@H](CC(C)C)C(=O)N[C@H](Cc2ccccc2)C1=O [3EpDN, 3-EpD1,2N] (cyclo(I[dL][dF][NPrGly][Nphe][dL]))

>  <IC50 [µM]>
16

$$$$

Next, consider the following compound.
[ask] Quick one: IC50 of CCCN1CC(=O)N(Cc2ccccc2)CC(=O)N[C@@H](CC(C)C)C(=O)N[C@H]([C@H](C)CC)C(=O)N[C@H](CC(C)C)C(=O)N[C@@H](Cc2ccccc2)C1=O [9EpDN, 9-EpD1,2N] (cyclo(F[NPrGly][Nphe]L[dI][dL])) ?
[reply] 12.8

====

# assaySummary: Kinetic solubility
# Type: physicochemical
# experimentalConditions: M9
Square brackets hold non-standard residues; d marks the D form. Peptide text beside a SMILES is read from it. Nphe = O=C(O)CNCc1ccccc1; NPrGly = CCCNCC(=O)O; Sar = CNCC(=O)O
metricName: solubility (µM)
Answers are plain numbers, in µM.

Below: 2 molecules and their reported solubility.
>  <molecule>
CCCN1CC(=O)N(Cc2ccccc2)CC(=O)N[C@@H](CC(C)C)C(=O)N[C@@H]([C@@H](C)CC)C(=O)N[C@H](CC(C)C)C(=O)N[C@H](Cc2ccccc2)C1=O [4EpDN, 4-EpD1,2N] (cyclo(I[dL][dF][NPrGly][Nphe]L))

>  <unitInfo>
µM

>  <solubility>
10

$$$$
>  <molecule>
CCCN1CC(=O)N(C)CC(=O)N[C@@H](CC(C)C)C(=O)N[C@@H]([C@@H](C)CC)C(=O)N[C@H](CC(C)C)C(=O)N[C@H](Cc2ccccc2)C1=O [4EpDN 2Sar, 4-EpD1,2N 2Sar] (cyclo(I[dL][dF][NPrGly][Sar]L))

>  <unitInfo>
µM

>  <solubility>
61

$$$$

[ask] Quick one: solubility of CC[C@H](C)[C@@H]1NC(=O)[C@H](CC(C)C)NC(=O)CN(Cc2ccccc2)C(=O)CN(C)C(=O)[C@@H](Cc2ccccc2)NC(=O)[C@@H](CC(C)C)NC1=O [4EpDN 1Sar, 4-EpD1,2N 1Sar] (cyclo(I[dL][dF][Sar][Nphe]L)) ?
[reply] 4

====

# System: P. aeruginosa PA103 T3SS (ExoU secretion)
# Format: cell-based, Pseudomonas aeruginosa
# experimentalConditions: read-out: IC50 (Table S1)
Square brackets hold non-standard residues; d marks the D form. Peptide text beside a SMILES is read from it. Nphe = O=C(O)CNCc1ccccc1; NPrGly = CCCNCC(=O)O; Sar = CNCC(=O)O
So I've got a bunch of compounds here, and I need their pIC50 values.
Numbers only, as −log10 of the molar value.

Below: 4 compounds and their reported pIC50.
>  <compound>
CCCN1CC(=O)N(Cc2ccccc2)CC(=O)N[C@@H](CC(C)C)C(=O)N[C@@H]([C@@H](C)CC)C(=O)N[C@@H](CC(C)C)C(=O)N[C@H](Cc2ccccc2)C1=O [2EpDN, 2-EpD1,2N] (cyclo(IL[dF][NPrGly][Nphe]L))

>  <pIC50>
4.82

$$$$
>  <compound>
CC[C@H](C)[C@@H]1NC(=O)[C@H](CC(C)C)NC(=O)CN(Cc2ccccc2)C(=O)CN(C)C(=O)[C@@H](Cc2ccccc2)NC(=O)[C@@H](CC(C)C)NC1=O [4EpDN 1Sar, 4-EpD1,2N 1Sar] (cyclo(I[dL][dF][Sar][Nphe]L))

>  <pIC50>
4.72

$$$$
>  <compound>
CCCN1CC(=O)N(Cc2ccccc2)CC(=O)N[C@H](CC(C)C)C(=O)N[C@@H]([C@@H](C)CC)C(=O)N[C@@H](CC(C)C)C(=O)N[C@@H](Cc2ccccc2)C1=O [8EpDN, 8-EpD1,2N] (cyclo(F[NPrGly][Nphe][dL]IL))

>  <pIC50>
4.38

$$$$
>  <compound>
CCCN1CC(=O)N(Cc2ccccc2)CC(=O)N[C@H](CC(C)C)C(=O)N[C@@H]([C@@H](C)CC)C(=O)N[C@@H](CC(C)C)C(=O)N[C@H](Cc2ccccc2)C1=O [1EpDN, EpD1,2N] (cyclo(IL[dF][NPrGly][Nphe][dL]))

>  <pIC50>
5.09

$$$$

[ask] Please state recorded pIC50 (tested on P. aeruginosa PA103 T3SS (ExoU secretion)) of CCCN1CC(=O)N(Cc2ccccc2)CC(=O)N[C@@H](CC(C)C)C(=O)N[C@@H]([C@@H](C)CC)C(=O)N[C@H](CC(C)C)C(=O)N[C@@H](Cc2ccccc2)C1=O [5EpDN, 5-EpD1,2N] (cyclo(F[NPrGly][Nphe]LI[dL]))
[reply] 5.20
